Reported GI50 is given for each of the following compounds.
- Test system: UACC-62
- assay_comment: NCI tumour cell line growth inhibition, 48 h
The source made the active and inactive calls. No stated cut-off is given here; in the data, active = GI50 up to about 1.1 µM and inactive = higher.

compound: Cc1cn(C2CC(OC(=O)c3ccc(Cl)cc3)C(COC(=O)c3ccc(Cl)cc3)O2)c(=O)[nH]c1=O (stereo not given)
GI50: > 100 µM (inactive)

compound: OC(CC(O)(C(F)(F)F)C(F)(F)F)c1ccc(C(O)CC(O)(C(F)(F)F)C(F)(F)F)cc1 (stereo not given)
GI50: 12.2 µM (inactive)

compound: Cc1cc2c(cc1C)[n+]([O-])c(C(=O)CC(=O)C(=O)Nc1ccccc1C(C)C)c(C)[n+]2[O-]
GI50: > 100 µM (inactive)

compound: CC(C)/C(Cl)=N\OC(=O)Nc1ccc(S(N)(=O)=O)cc1
GI50: 17.9 µM (inactive)

compound: CC(=O)N1N(c2ccc([N+](=O)[O-])cc2)C(=O)C1(C)C
GI50: 18.5 µM (inactive)

compound: O=C1CCc2c(sc3ncnc(Nc4cccc(Br)c4)c23)C1
GI50: 3.72 µM (inactive)

compound: COC(=O)/C=C\C(C#N)(C#N)/N=C/c1sccc1C
GI50: 6.62 µM (inactive)

compound: Nc1ccccc1C(=O)/C=C/c1c(O)ccc2ccccc12
GI50: > 100 µM (inactive)

compound: CN(CC(=O)O)c1ncc2c(n1)CCCC2
GI50: > 100 µM (inactive)

compound: C[N+](C)(C)CCc1ccccc1
GI50: > 100 µM (inactive)

compound: O=C1[C@@H]2C(c3ccccc3Br)=NO[C@@H]2C(=O)N1c1ccc(Cc2ccc(N3C(=O)[C@H]4C(c5ccccc5Br)=NO[C@H]4C3=O)cc2)cc1
GI50: > 100 µM (inactive)

compound: CC(C)C(=O)/C=C/c1ccc(Cl)c(Cl)c1
GI50: 17.3 µM (inactive)

compound: O=C1N[C@H]2[C@H](O)[C@H](O)[C@@H](O)[C@H](O)[C@@H]2c2cc3c(c(O)c21)OCO3 [PANCRATISTATIN]
GI50: 0.0436 µM (active)

compound: CC1C(=O)N=C2C(=CN(Cc3ccccc3)c3ccccc32)C(=O)N1C (stereo not given)
GI50: > 100 µM (inactive)

compound: Cc1ccc(-c2sc(-c3ccc(C)cc3)c3c2C2CCC3C2)cc1
GI50: > 50 µM (inactive)

compound: O=C(C(=O)n1ncc(Cl)c(Cl)c1=O)n1ncc(Cl)c(Cl)c1=O
GI50: 15.1 µM (inactive)

compound: Cc1cc2[nH]c3c(C#N)c4c(c(=O)n3c2cc1C)CCCC4
GI50: > 100 µM (inactive)

compound: C=C(C)[C@]12CC(C)C34OC(/C=C\C=C\CCCCCCCCC)(O[C@@H]1[C@@H]3[C@@H]1O[C@]1(CO)[C@@H](O)[C@]1(O)C(=O)C(C)=C[C@@H]41)O2 (stereo not given in full)
GI50: 10 µM (inactive)

compound: CCON=C1C(C)(C)C(C)(C)C(C)(C)C1(C)C
GI50: > 100 µM (inactive)

compound: Cn1cnc([N+](=O)[O-])c1[Se]c1nc(N)nc2c1ncn2C1OC(CO)C(O)C1O (stereo not given)
GI50: > 100 µM (inactive)

* * *

- Test system: M14
- assay_comment: NCI tumour cell line growth inhibition, 48 h
The source made the active and inactive calls. Cut-off read from the data, not from the text of the source: active = GI50 up to about 1.1 µM and inactive = higher.
Outcomes: true = active, false = inactive

compound: CC(C)(C)OC(=O)c1ccc(NCc2cc(O)ccc2O)cc1
system_name: M14
category_label: false

compound: COc1cc2cc(C(=O)N3CC(CCl)c4ccc(NO)cc43)[nH]c2c(OC)c1OC (stereo unspecified)
system_name: M14
category_label: true

compound: CN(C)C=C1C(=O)N(C)C(=O)N(C)C1=O
system_name: M14
category_label: false

compound: COc1cc(C2SCC(=O)N2NC(=O)c2ccc(NC(C)=O)cc2OC)ccc1O (stereo unspecified)
system_name: M14
category_label: false

compound: C=CC(C)(C)C1(CC(OC)OC)C(=O)N(C)c2ccccc21 (stereo unspecified)
system_name: M14
category_label: false

compound: O=C(Cc1ccc(F)cc1)NC1=C(Cl)C(=O)c2ccccc2C1=O
system_name: M14
category_label: false

compound: C=CCN1C(=O)CNC1=S
system_name: M14
category_label: false

compound: CC(C)(Cl)C(Br)CC/C(=C/CBr)CBr.CC(C)(Cl)C(Br)CC/C(=C\CBr)CBr (stereo unspecified)
system_name: M14
category_label: false

compound: NC(Cc1cc(Br)c(O)c(Br)c1)C(=O)O (stereo unspecified)
system_name: M14
category_label: false

compound: CN(C)C(=S)SN(C)C(=O)Nc1ccccc1
system_name: M14
category_label: false

compound: Cc1c2cc[n+](C)cc2c(C)c2c1[nH]c1ccc(O)c(OCC(F)(F)F)c12
system_name: M14
category_label: false

Measured values drawn from ChEMBL document CHEMBL1201862 for this set.
